assay: Cytotoxicity against PBMC; type: cell-based; details: human
Would you kindly list CC50 for each of these compounds?

Answered cases to consult:
1) CCOC(=O)COc1c2c(c(-c3ccc4c(c3)OCO4)c3cc(OC)c(OC)cc13)C(=O)OC2 [Compound 12b]: > 100 µM
2) COc1cc2c(OCC#N)c3c(c(-c4ccc5c(c4)OCO5)c2cc1OC)C(=O)OC3 [Compound 17a]: > 100 µM

For each of the compounds below, note its CC50.
1. COc1cc2c(B3OC(C)(C)C(C)(C)O3)c3c(c(-c4ccc5c(c4)OCO5)c2cc1OC)C(=O)OC3 [Compound 19a]
2. C#Cc1c2c(c(-c3ccc4c(c3)OCO4)c3cc(OC)c(OC)cc13)C(=O)OC2 [Compound 21]

Key:
1: > 100 µM; 2: 25.6 µM
